Reported growth values for the following compounds.
System: OVCAR-4 ovarian
TEST DESCRIPTION: NCI-60 one-dose screen, 48 h (100 = growth as untreated, 0 = no growth, -100 = all killed)
PARTICULARS: 10 µM unless noted
About 83,000 compounds went through this panel and 20% of them were active in at least one assay; those are over-represented in the sample as a whole. *1 amine or outer side, *2 acyl side, *3 side chain or, on linkers, in order; H or OH if unused. Where a SMILES comes first, the peptide text is derived from it. [ ]: non-standard residue; d: D form. The star is where a group is joined. X5 = CCC(=O)CC1CC(C)CC(C(=O)[*:2])N1[*:1]; X4 = CCCCCCCCC(C)C(=O)*; Aib = CC(C)(N)C(=O)O; X6 = CC(CN(C)CCO)N*
READOUT: growth (%)

compound=CN(C)c1ccc(/C=C/c2nccc3ccccc23)cc1 readout=growth numeric_result=103
compound=Nc1cc(-c2ccccc2)ccc1O readout=growth numeric_result=91.4
compound=c1csc(-c2[nH]nc3c2CCc2ccccc2-3)c1 readout=growth numeric_result=48.5
compound=Oc1ccc(Br)cc1Sc1cc(Br)ccc1O readout=growth numeric_result=37.3
compound=CC/C(=C(/CC)c1ccc(O)cc1)c1ccc(O)cc1 readout=growth numeric_result=76.8
compound="Cc1ccccc1N=C(N)Nc1ccccc1C (tested in a mixture with another compound)" readout=growth numeric_result=82.2
compound=O=C(c1ccccc1)N(CCCl)C(=O)N(CCCl)C(=O)c1ccccc1 readout=growth numeric_result=105
compound=Cc1c(O)ccc(SC#N)c1C readout=growth numeric_result=107
compound=Fc1ccc(NCCS)cc1 readout=growth numeric_result=102
compound="CCC1CCCCN1C(=S)N/N=C(\\C)c1ccccn1 (stereo unspecified)" readout=growth numeric_result=-50.2
compound="CCCCCCCCCCCC[S+](C)CC(=O)[O-] (stereo unspecified)" readout=growth numeric_result=48.1
compound=COC(=O)c1nc(=S)[nH]c(C(=O)OC)c1C(=O)c1ccc(Cl)c(Cl)c1 readout=growth numeric_result=104
compound="CC(/C=N/NC(N)=S)Cc1ccc(C(C)C)cc1 (stereo unspecified)" readout=growth numeric_result=29.8
compound=CCOc1cc(F)c([N+](=O)[O-])cc1[N+](=O)[O-] readout=growth numeric_result=46.9
compound=CCOC(=O)c1c(C)[nH]c2ccc(O)cc12 readout=growth numeric_result=107
compound=CC(C)N=C(N)/N=C(\N)Nc1ccc2ccc3ccccc3c2c1 readout=growth numeric_result=-56.9
compound=CN(C)CC(C)(CN(C)C)C(=O)/C=C/c1c(Cl)cccc1Cl readout=growth numeric_result=62.2
compound=CN=C(N)N/N=C(\c1ccccc1)c1ccc(Br)cc1 readout=growth numeric_result=42.1
compound=O=[N+]([O-])/C(=C/c1ccccc1)c1ccccc1 readout=growth numeric_result=99
compound=O=C(/C=C/C(Cl)(Cl)Cl)Nc1ccc(Cl)cc1 readout=growth numeric_result=115
compound=COc1ccc2c(c1)c(CC(=O)O)c(C)n2C(=O)c1ccc(Cl)cc1 readout=growth numeric_result=102
compound=O=C1c2ccccc2C(=O)c2c(O)c(Cl)cc(O)c21 readout=growth numeric_result=84.3
compound="CN1CCC(CN2c3ccccc3Sc3ccccc32)C1 (stereo unspecified)" readout=growth numeric_result=94.4
compound=CN(Cc1ccccc1)c1ccc(SC#N)cc1 readout=growth numeric_result=68.9
compound=CCC(=O)c1cc([N+](=O)[O-])c(Br)s1 readout=growth numeric_result=109
compound="CCCCCCCCC(C)C(=O)N1CCCC1C(=O)N1C(CC(=O)CC)CC(C)CC1C(=O)NC(C)C(=O)NC(C)(C)C(=O)NC(C)(C)C(=O)NC(C(=O)NC(C)C(=O)NC(C)(C)C(=O)NC(C)(C)C(=O)NC(C)CN(C)CCO)C(C)CC (stereo unspecified) (X4-P[X5]A[Aib][Aib]IA[Aib][Aib]-X6; configuration not given here)" readout=growth numeric_result=-12.9
compound=CCN(CC)c1ccc(/C=C\C(=O)c2ccc(NC(C)=O)cc2)cc1 readout=growth numeric_result=90.6
compound=CCCCN(CCCC)CCCCCCCCCCO readout=growth numeric_result=93.4
compound=COc1cc(-c2ccc(-[n+]3nc(-c4ccc([N+](=O)[O-])cc4)nn3-c3ccc([N+](=O)[O-])cc3)c(OC)c2)ccc1-[n+]1nc(-c2ccc([N+](=O)[O-])cc2)nn1-c1ccc([N+](=O)[O-])cc1 readout=growth numeric_result=53.9
compound=c1ccc(-c2cccc(-c3ccccn3)n2)nc1 readout=growth numeric_result=33.3
compound="OC(c1cc(-c2ccc(Cl)cc2)nc2c(Cl)cccc12)C1CCCCN1 (stereo unspecified)" readout=growth numeric_result=-85.6
compound=O=C(O)c1cccc2cccc(-c3c4ccc(=O)c(O)c-4oc4c(O)c(O)ccc34)c12 readout=growth numeric_result=97.4
compound=O=C1CSC(=S)N1Cc1cccnc1 readout=growth numeric_result=91.7
compound=Cc1ccc2c(c1)sc(-c1ccc(N(C)C)cc1)[n+]2C readout=growth numeric_result=20.3
compound=O=C1/C(=C/c2ccccn2)CCc2ccccc21 readout=growth numeric_result=104
compound=CC(C)c1ccc(C(=O)OC2CCCC2)cc1 readout=growth numeric_result=106
compound=Nc1nc(-c2ccccc2)nc(N)c1N=O readout=growth numeric_result=83.9
compound="CCN1CCCC(Nc2cc(C)nc(/N=C(/N)Nc3ccc(Cl)c(Cl)c3)n2)C1 (stereo unspecified)" readout=growth numeric_result=-17.3
compound=CCOC(=O)c1[nH]c(C#N)c(C(=O)OCC)c1C readout=growth numeric_result=97.7
compound=COc1ccc2nc3cc([N+](=O)[O-])ccc3c(NNc3ccccc3)c2c1 readout=growth numeric_result=72.8
compound=O=C(/C(Cl)=N/O)c1ccc(-c2ccccc2)cc1 readout=growth numeric_result=112
compound=NC1=C(Br)C(=O)c2ncccc2C1=O readout=growth numeric_result=-89.5
compound=C1=C(c2ccccc2)c2ccccc2C1 readout=growth numeric_result=105
compound=S=c1[nH]c2cc(Cl)ccc2s1 readout=growth numeric_result=106
compound="CCC(C)(O)Cc1ccc(Cl)cc1 (stereo unspecified)" readout=growth numeric_result=103
compound="CCCc1cc(=O)oc2c3c(c4c(c12)OC(C)(C)CC4)OC(C)[C@H](C)[C@@H]3O (stereo partly specified)" readout=growth numeric_result=83.9

----------
Test system: SF-295 CNS
TEST DESCRIPTION: NCI-60 one-dose screen, 48 h (100 = growth as untreated, 0 = no growth, -100 = all killed)
PARTICULARS: 10 µM unless noted
The panel holds about 83,000 compounds, 20% with a hit somewhere; the sample as a whole holds those more often. *1 amine or outer side, *2 acyl side, *3 side chain or, on linkers, in order; H or OH if unused. Where a SMILES comes first, the peptide text is derived from it. [ ]: non-standard residue; d: D form. The star is where a group is joined. X5 = CCC(=O)CC1CC(C)CC(C(=O)[*:2])N1[*:1]; X4 = CCCCCCCCC(C)C(=O)*; Aib = CC(C)(N)C(=O)O; X6 = CC(CN(C)CCO)N*
# if value of growth reaches 90%, tag Met; if it stays below, tag Not met

molecule="O=C(c1ccccc1)C(O)C(Br)(CBr)c1ccccc1 (stereo not given)" measured_target="SF-295 CNS" qualitative_label=Met
molecule="CCCCCCCCC(C)C(=O)N1CCCC1C(=O)N1C(CC(=O)CC)CC(C)CC1C(=O)NC(C)C(=O)NC(C)(C)C(=O)NC(C)(C)C(=O)NC(C(=O)NC(C)C(=O)NC(C)(C)C(=O)NC(C)(C)C(=O)NC(C)CN(C)CCO)C(C)CC (stereo not given) (X4-P[X5]A[Aib][Aib]IA[Aib][Aib]-X6; configuration not given here)" measured_target="SF-295 CNS" qualitative_label="Not met"
molecule=CCOC(=O)c1cc(CC)sc1NC(=O)CC(C)=O measured_target="SF-295 CNS" qualitative_label="Not met"
molecule=CCCCCCCCCCCCCCCCCC1=NCCCN1CCO measured_target="SF-295 CNS" qualitative_label=Met
molecule=C/C=C/c1cc2c(c(=O)o1)C(=O)[C@@H](O)[C@H](C)O2 measured_target="SF-295 CNS" qualitative_label=Met
molecule="OC(c1cc(-c2ccc(Cl)cc2)nc2c(Cl)cccc12)C1CCCCN1 (stereo not given)" measured_target="SF-295 CNS" qualitative_label="Not met"
molecule=CC(=O)N1CC(=O)NC1=S measured_target="SF-295 CNS" qualitative_label=Met
molecule=CCCCCCCCCCCC1=NCCCN1CCCC measured_target="SF-295 CNS" qualitative_label=Met
molecule="Nc1nc2ncc(CNc3ccc(C(=O)NC(CCC(=O)NC(CCC(=O)NC(CCC(=O)NC(CCC(=O)NC(CCC(=O)O)C(=O)O)C(=O)O)C(=O)O)C(=O)O)C(=O)O)cc3)nc2c(=O)[nH]1 (stereo not given)" measured_target="SF-295 CNS" qualitative_label=Met

Source listed as PubChem BioAssay (NCI).
